Each entry below carries its reported self-splicing fitness (ln).
Assay text: self-splicing fitness, log relative to wild type (ln ratio); higher = more splicing; Tetrahymena group I intron in knt gene, E. coli kanamycin selection, DiMSum; sequences stand for … in CUCUCU…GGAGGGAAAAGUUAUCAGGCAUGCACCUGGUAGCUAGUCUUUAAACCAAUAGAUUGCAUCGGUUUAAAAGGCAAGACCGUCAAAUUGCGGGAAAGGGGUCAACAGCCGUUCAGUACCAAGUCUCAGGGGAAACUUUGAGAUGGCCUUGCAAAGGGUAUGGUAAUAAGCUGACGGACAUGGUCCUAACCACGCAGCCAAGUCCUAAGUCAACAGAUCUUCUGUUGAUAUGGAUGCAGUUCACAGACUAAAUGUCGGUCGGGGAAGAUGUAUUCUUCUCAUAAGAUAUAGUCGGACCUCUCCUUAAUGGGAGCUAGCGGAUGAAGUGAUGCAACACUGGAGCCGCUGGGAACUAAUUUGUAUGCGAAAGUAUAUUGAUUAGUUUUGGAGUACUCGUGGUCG;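 also: selection with 25 µg/mL kanamycin versus none on LB agar overnight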
Measurement context: 37 °C

Sample answers from the record:
Sequence input	self-splicing fitness (ln)
UUCAAGCAAUAUUACGUCAG	-1.23
UCCUAGCAAUAUUACGCCGC	-3.49
GUUAAGCAAUAUUACGAAGC	-1.82
AAAUAGCAAUAUUACGGCCG	0.0219
AAAAAGCAAUAUUACGACAC	-0.575

Asked: Query: self-splicing fitness (ln); subject: AAUCAGCAAUAUUACGAACU
Given back: 0.389

Asked: Query: self-splicing fitness (ln); subject: CCGAAGCAAUAUUACGCAUG
Given back: -0.892

Asked: Query: self-splicing fitness (ln); subject: UUCGAGCAAUAUUACGGAAA
Given back: -2.84

Asked: Query: self-splicing fitness (ln); subject: CUGUAGCAAUAUUACGGAAG
Given back: -2.22

Sourced from the supplement of paper PMC7877785
